- Tested on: LIMK2
- conditionLabel: concentration: 1 μM, replicates: in singlicate; n = 1;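 note: KINOMEscan kinase panel screen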
Attribute: %Inh
Supply the numeric figure in %, leaving out any unit text.

Worked examples follow.
| smilesText | %Inh / % |
| --- | --- |
| CSc1nn2c(=O)cc(N3CCOCC3)nc2n1Cc1cccc(Cl)c1Cl | 19 |
| CN1CCC(n2cnc(-c3ccc(F)cc3)c2-c2ccnc(NC3CCNCC3)n2)CC1 | 30 |
| FC(F)(F)c1ccc(-c2nn3ncccc3c2-c2ccnc(Nc3cccc(C(F)(F)F)c3)n2)cc1 | 0 |

INPUT: Recorded %Inh of `CC(C)(C)c1ccc(-n2cnc3c(N)ncnc32)cc1` , please.
OUTPUT: 0

INPUT: Recorded %Inh of `CCc1nc(-c2cccc(N(C)S(=O)(=O)c3ccccc3)c2)c(-c2ccnc(Nc3ccc(N4CCN(C(C)=O)CC4)nc3)n2)s1` , please.
OUTPUT: 0

INPUT: Recorded %Inh of `Cl.O=S(=O)(c1cccc(F)c1)c1ccc(Nc2ncnc3cc(Br)sc23)cc1Cl` , please.
OUTPUT: 3

INPUT: Recorded %Inh of `FC(F)(F)c1cc(Nc2nccc(-c3c(-c4ccc(Cl)cc4)nn4ncccc34)n2)ccc1Cl` , please.
OUTPUT: 0

INPUT: Recorded %Inh of `O=C(CCO)NCCn1ccc2ncnc(Nc3ccc(Oc4cccc(C(F)(F)F)c4)c(Cl)c3)c21` , please.
OUTPUT: 0

* * *

- Tested on: PRKG2
- conditionLabel: concentration: 1 μM, replicates: in singlicate; n = 1
Attribute: %Inh
Supply the numeric figure in %, leaving out any unit text.

| compound | target | measuredResult |
| --- | --- | --- |
| COc1cc2c(Nc3cccc(NC(=O)c4ccccc4)c3)ncnc2cc1OCCCN1CCOCC1 | PRKG2 | 0 |
| Oc1ccc2ncnc(Nc3ccc(OCc4ccccc4)cc3)c2c1 | PRKG2 | 0 |
| CCc1nc(-c2cccc(N(C)S(=O)(=O)c3ccccc3)c2)c(-c2ccnc(Nc3ccc(N4CCN(C(C)=O)CC4)nc3)n2)s1 | PRKG2 | 0 |

Next up:
INPUT: Param readout= %Inh; system= PRKG2; entry= `FC(F)(F)c1ccc(-c2cc(-c3c[nH]nc3-c3ccccn3)ccn2)cc1` ; returns value.
OUTPUT: 2

* * *

- Test system: RPS6KA4(Kin.Dom.2-C-terminal)
- conditionLabel: concentration: 1 μM, replicates: in singlicate; n = 1
Attribute: %Inh
Supply the numeric figure in %, leaving out any unit text.

Worked examples follow.
| compound | unitTag | %Inh |
| --- | --- | --- |
| CCc1nc(-c2cccc(C)c2)c(-c2ccnc(NC(=O)c3ccccc3)c2)s1 | % | 8 |
| CC(=O)Nc1n[nH]c2ncc(-c3ccccc3)cc12 | % | 17 |
| CN1CCC(n2cnc(-c3ccc(F)cc3)c2-c2ccnc(NC3CCNCC3)n2)CC1 | % | 0 |
| Cl.Cn1ccc(-c2cccc(Nc3ccnc4cc(-c5nccs5)ccc34)c2)n1 | % | 0 |
| Cn1ccc2ncnc(Oc3ccc(NC(=O)Nc4cccnc4)c(Cl)c3)c21 | % | 0 |

INPUT: Recorded %Inh of `C[C@@H]1CCN(C(=O)CO)C[C@@H]1N(C)c1ncnc2[nH]ccc12` , please.
OUTPUT: 0

INPUT: Recorded %Inh of `Nc1nc(-c2cccnc2)c(-c2ccnc3ccccc23)s1` , please.
OUTPUT: 0

INPUT: Recorded %Inh of `N#Cc1ccc(Oc2ccc(Nc3ncnc4cc[nH]c34)cc2Cl)cc1` , please.
OUTPUT: 8

INPUT: Recorded %Inh of COc1ccc(Nc2nccc(N3CCC(NC(=O)Nc4ccc5c(c4)OCO5)C3)n2)cc1 (stereo not drawn) , please.
OUTPUT: 0

INPUT: Recorded %Inh of `FC(F)(F)c1ccc(-c2cc(-c3c[nH]nc3-c3ccccn3)ccn2)cc1` , please.
OUTPUT: 0

INPUT: Recorded %Inh of `Nc1nc(-c2ccccn2)c(-c2ccnc3ccccc23)s1` , please.
OUTPUT: 0

INPUT: Recorded %Inh of `C[C@H]1CC[C@@H](C(=O)Nc2ccccc2)CN1c1cc(-c2ccc3c(N)n[nH]c3c2)nc(N)n1` , please.
OUTPUT: 0

The reported measurements were obtained from paper PMC5540273.
